For each of the compounds below, state its % inhibition at 10 μM.
target: UniProtKB P06737; assay: Glycogen phosphorylase a activity test (reverse direction, release of inorganic phosphate); type: biochemical; settings: 10 μM test substance; duplicate determinations; 40 min at room temperature
Sequence (P06737 2-847 limits assumed): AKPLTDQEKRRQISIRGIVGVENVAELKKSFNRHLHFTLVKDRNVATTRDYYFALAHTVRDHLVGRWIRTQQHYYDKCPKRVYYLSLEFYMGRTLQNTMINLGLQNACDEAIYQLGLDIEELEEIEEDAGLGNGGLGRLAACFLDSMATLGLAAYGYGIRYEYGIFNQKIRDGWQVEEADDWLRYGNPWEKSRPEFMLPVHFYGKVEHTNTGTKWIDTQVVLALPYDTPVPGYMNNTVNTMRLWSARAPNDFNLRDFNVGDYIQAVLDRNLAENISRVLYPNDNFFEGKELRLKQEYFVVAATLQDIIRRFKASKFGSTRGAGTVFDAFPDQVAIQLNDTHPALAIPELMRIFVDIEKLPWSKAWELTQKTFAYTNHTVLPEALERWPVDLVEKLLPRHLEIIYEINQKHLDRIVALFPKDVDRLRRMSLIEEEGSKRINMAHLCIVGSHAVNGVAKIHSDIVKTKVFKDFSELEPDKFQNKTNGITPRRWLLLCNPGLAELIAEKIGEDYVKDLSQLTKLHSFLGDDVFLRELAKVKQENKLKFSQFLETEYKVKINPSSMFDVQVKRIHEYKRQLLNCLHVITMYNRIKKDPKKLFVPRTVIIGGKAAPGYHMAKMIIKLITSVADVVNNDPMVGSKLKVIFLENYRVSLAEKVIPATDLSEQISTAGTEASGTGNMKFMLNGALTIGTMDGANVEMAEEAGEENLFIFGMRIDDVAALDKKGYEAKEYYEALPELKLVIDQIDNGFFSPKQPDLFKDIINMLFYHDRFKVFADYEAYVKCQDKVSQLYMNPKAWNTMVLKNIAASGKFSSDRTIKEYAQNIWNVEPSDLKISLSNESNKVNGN
Supply the numeric figure in %, leaving out any unit text.

// % inhibition at 10 μM lookup, compound = COC(=O)c1ccc(N2CCCC(C(=O)O)C2)c(NC(=O)NC(=O)c2ccc(F)cc2Cl)c1 (stereo not shown) , result: 3.2

// % inhibition at 10 μM lookup, compound = O=C(NC(=O)c1cc(F)c(F)cc1Cl)Nc1ccccc1-c1ccc(C(=O)O)o1 [Example 13b] , result: 100

// % inhibition at 10 μM lookup, compound = O=C(NC(=O)c1cc(F)c(F)cc1Cl)Nc1ccccc1-c1nc2ccccc2[nH]1 [Example 13a] , result: 48

// % inhibition at 10 μM lookup, compound = O=C(NC(=O)c1ccc(F)cc1Cl)Nc1cc(Cl)ccc1N1CCCC(C(=O)O)C1 (stereo not shown) , result: 0.03

// % inhibition at 10 μM lookup, compound = CCN(CC)C(=O)C1CCCN(c2ccc(F)cc2NC(=O)NC(=O)c2ccc(F)cc2Cl)C1 (stereo not shown) , result: 4.6

// % inhibition at 10 μM lookup, compound = NC(=O)C1CCCN(c2ccc(F)cc2NC(=O)NC(=O)c2cc(F)c(F)cc2Cl)C1 (stereo not shown) [Example 15c] , result: 0.3

// % inhibition at 10 μM lookup, compound = O=C(NC(=O)c1ccc(F)cc1Cl)Nc1ccccc1-c1nnc(O)o1 , result: 100

// % inhibition at 10 μM lookup, compound = O=C(NC(=O)c1ccc(F)cc1Cl)Nc1ccc(-c2nnn[nH]2)cc1OC(F)(F)F , result: 100

// % inhibition at 10 μM lookup, compound = COC(=O)C1CCN(c2ccc(S(C)(=O)=O)cc2NC(=O)NC(=O)c2ccc(F)cc2Cl)CC1 , result: 0.8

// % inhibition at 10 μM lookup, compound = O=C(NC(=O)c1cc(F)c(F)cc1Cl)Nc1ccc(-n2cncn2)cc1F , result: 94

// % inhibition at 10 μM lookup, compound = O=C(NC(=O)c1ccc(F)cc1Cl)Nc1cc(F)ccc1N1CCC(C(=O)O)CC1 , result: 0.04

// % inhibition at 10 μM lookup, compound = O=C(NC(=O)c1cc(F)c(F)cc1Cl)Nc1cc(C(F)(F)F)ccc1N1CCCC(C(=O)O)C1 (stereo not shown) , result: 0.03

// % inhibition at 10 μM lookup, compound = O=C(NC(=O)c1cc(F)c(F)cc1Cl)Nc1ccc(-c2nnn[nH]2)cc1OC(F)(F)F , result: 100

// % inhibition at 10 μM lookup, compound = CCN(CC)C(=O)C1CCCN(c2ccc(F)cc2NC(=O)NC(=O)c2cc(F)c(F)cc2Cl)C1 (stereo not shown) , result: 3.9

// % inhibition at 10 μM lookup, compound = O=C(NC(=O)c1ccc(F)cc1Cl)Nc1ccccc1-c1nnco1 , result: 98

// % inhibition at 10 μM lookup, compound = Cc1nnc(-c2ccc(NC(=O)NC(=O)c3ccc(F)cc3Cl)c(Cl)c2)o1 , result: 79

// % inhibition at 10 μM lookup, compound = Cc1nnc(-c2ccc(Cl)c(NC(=O)NC(=O)c3cc(F)c(F)cc3Cl)c2)[nH]c1=O [Example 14e] , result: 97

// % inhibition at 10 μM lookup, compound = COC(=O)c1ccc(N2CCCC(C(=O)O)C2)c(NC(=O)NC(=O)c2cc(F)c(F)cc2Cl)c1 (stereo not shown) , result: 1.0

// % inhibition at 10 μM lookup, compound = O=C(NC(=O)c1cc(F)c(F)cc1Cl)Nc1ccc(-c2nnn[nH]2)cc1Cl , result: 100

// % inhibition at 10 μM lookup, compound = Cc1nnc(-c2ccc(Cl)c(NC(=O)NC(=O)c3cc(F)c(F)cc3Cl)c2)[nH]1 , result: 100

// % inhibition at 10 μM lookup, compound = O=C(NC(=O)c1cc(F)c(F)cc1Cl)Nc1ccccc1-c1nnco1 , result: 100

// % inhibition at 10 μM lookup, compound = O=C(NC(=O)c1cc(F)c(F)cc1Cl)Nc1ccc(-c2noc(=O)[nH]2)cc1OC(F)(F)F [Example 11d] , result: 100
